The reported numbers originate from PubChem BioAssay (NCI).

system: OVCAR-4 ovarian; test: NCI tumour cell line growth inhibition, 48 h
Value type: TGI

Worked cases, TGI given:
INSERT INTO measurements (molecule, tested_on, value_type, value) VALUES
  ('COc1cc2c(cc1OC)C1[C@@H](c3ccccc3)OCN1CC2 (some centres undefined)', 'OVCAR-4 ovarian', 'TGI', '> 100 µM'),
  ('CC1(C)C(N(O)C(=O)Nc2ccc(Cl)cc2)N(c2ccc(Cl)cc2)C(=O)N1CC(=O)N/N=C/C=C/c1ccc([N+](=O)[O-])o1 (centres undefined)', 'OVCAR-4 ovarian', 'TGI', '> 100 µM'),
  ('CC(=O)NCCC1CNc2ccccc21 (centres undefined)', 'OVCAR-4 ovarian', 'TGI', '> 100 µM'),
  ('O=C(N[C@@H](c1ccccc1)[C@@H](O)C(=O)OCc1ccc2c(c1)OCO2)c1ccccc1', 'OVCAR-4 ovarian', 'TGI', '> 100 µM'),
  ('c1coc(C2=Nc3cccc4cccc(c34)N2)c1', 'OVCAR-4 ovarian', 'TGI', '84.9 µM'),
  ('Nc1nc(-c2ccco2)cc(-c2ccco2)n1', 'OVCAR-4 ovarian', 'TGI', '> 100 µM');

Now consider the entry below.
Inquiry: Recorded TGI for CC(=O)Nc1ccc(S(=O)(=O)Nc2nc(-c3ccc(Cl)cc3)cc(N3N=C(c4ccc(Br)cc4)CC3c3ccccc3)n2)cc1 (centres undefined) , please?
Reply text: 30 µM
